molecular target: Bcl-2 (residues 1-207 A96T,G110R, Δ35-91, replaced with Bcl-xL35-50) (Homo sapiens (Human), UniProt P10415, DEL35-91/INS34DVEENRTEAPEGTESE); assay: Bak peptide binding assay, fluorescence polarization anisotropy competition (FITC-Bak), Bcl-2 selectivity; conditions: Table 4; FITC-Bak peptide 10 nM, Bcl-2 40 nM
Sequence (P10415 other isoform, or with tags, fused parts or gaps, stated change not applied): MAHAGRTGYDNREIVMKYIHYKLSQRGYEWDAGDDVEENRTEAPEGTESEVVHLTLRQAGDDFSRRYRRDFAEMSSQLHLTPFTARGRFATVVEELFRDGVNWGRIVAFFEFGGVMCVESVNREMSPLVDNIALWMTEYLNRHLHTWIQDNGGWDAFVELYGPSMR
Reported Metric: Ki (nM)

Substance Smiles: Cc1cc(OCCCc2c(C)n(Cc3ccc(C(=O)O)o3)c3c(-c4c(C)n[nH]c4C)cccc23)cc(C)c1Cl
Reported Metric: Ki
Reported Result: 2900
--
Substance Smiles: Cc1cc(OCCCc2c(C)n(Cc3cccc(C(=O)O)c3)c3c(-c4c(C)n[nH]c4C)cccc23)cc(C)c1Cl
Reported Metric: Ki
Reported Result: 1200
--
Substance Smiles: Cc1cc(OCCCc2c(C)n(CCC(=O)O)c3c(-c4c(C)nn(C)c4C)cccc23)cc(C)c1Cl
Reported Metric: Ki
Reported Result: 7100
